# PROTOCOL_SUMMARY: soluble on expression in E. coli; label from the status in PepcDB or PDB records
PROPERTY_LABEL: soluble on expression in E. coli

INSERT INTO results (seq_string, result) VALUES
  ('MAHHHHHHMHPVPQAPYLSSPSPLFPNRGWCWQRPLRIFCPFFSAPLRAASSRRCHRPFLSIRFKKRCCNNPLLLGVVEAILPEPHSPAIPPVILRVFTPPS', 'not soluble'),
  ('MGSDKIHHHHHHMARSWLDYKTQAWVQWCPGCGDFGILNSIYRAVSELGIDPENLAVVGGIGCSGRTTYYVKGSNFHALHGRAIPVATGVKLANPHLNVIVAGGDGDLMGIGGGHFVALGRRNLNITVLLFDNAVYGLTKGQAAPTLPAWVKTKALSMPNIHDNINPVLLAFAAGYTFIARGYAYHTQQLKELIKTAVRHRGAALVDILQPCPTYNNIMTNKWYEERIYYVDQEEGYDPIIRTPEEFQKKAPAIAAKLMEFGDRIPLGILYWNQTRESFEERLEKIMPGYMSAPPATRRIELEGKPFLHPFDIFKDRLVTP', 'not soluble');

Source listed as the DeepSol protein solubility set.
